As shown below, each of these compounds has a reported viability at 28.5 h, 10 µM value.
Assay: in vitro
Settings: human, hela cells, % viability, bulk resorufin, single well
Reply numerically in %, unit not repeated.

>  <compound>
O=C(N[C@@H]1C[C@H]1c1ccccc1)N1CCC2(CC1)OCc1cc(F)ccc1O2

>  <viability at 28.5 h, 10 µM, %>
82.1

$$$$
>  <compound>
Oc1ccc(Br)cc1C(c1c(O)nc(S)nc1O)c1c(O)nc(S)nc1O

>  <viability at 28.5 h, 10 µM, %>
103

$$$$
>  <compound>
COc1cc(/C=C2\C(=O)NC(=O)N(c3ccc([N+](=O)[O-])cc3)C2=O)ccc1OCC(=O)O

>  <viability at 28.5 h, 10 µM, %>
100

$$$$
>  <compound>
c1cc2c(cc1CCNCc1ccc3c(c1)OCO3)OCO2 [CBK074501G]

>  <viability at 28.5 h, 10 µM, %>
98.9

$$$$
>  <compound>
COc1cc(/C=C2/C(=O)NC(=O)N(c3ccc(C)c(Cl)c3)C2=O)ccc1OC(C)C

>  <viability at 28.5 h, 10 µM, %>
118

$$$$

Query compound follows.
Query block: Value lookup for viability at 28.5 h, 10 µM; key = COc1cc(/C=N/O)ccc1Oc1ccc([N+](=O)[O-])cc1[N+](=O)[O-]
Result block: 92.5

----------
Assay: in vitro
Conditions: human, hela cells, % viability
This section presents compounds with their documented viability at 28.5 h, 10 µM values.
Give just the number in %; leave the unit off.

// solved cases for viability at 28.5 h, 10 µM follow
>  <compound>
CC(=O)NCCSc1nc2cc(Cl)c(Cl)cc2nc1N1CCCC1

>  <viability at 28.5 h, 10 µM [%]>
96.3

$$$$
>  <compound>
CC(C)c1ccccc1NC(=O)NC(=O)C1CCN(CCc2ccc(C#N)cc2)CC1

>  <viability at 28.5 h, 10 µM [%]>
90.3

$$$$
>  <compound>
Cc1c(Cl)cccc1N1CCN(S(=O)(=O)CC23CCC(CC2=O)C3(C)C)CC1 (centres unmarked)

>  <viability at 28.5 h, 10 µM [%]>
96.1

$$$$
>  <compound>
CN(C)c1cccc2c(S(=O)(=O)n3ccn(-c4cccc(C(F)(F)F)c4)c3=O)cccc12

>  <viability at 28.5 h, 10 µM [%]>
109

$$$$

Query block: // query viability at 28.5 h, 10 µM value for entry CCc1cc(-c2n[nH]c(C(=O)O)c2-c2nc(C)cs2)c(O)cc1O
Result block: 99.4

----------
Assay: in vitro
Conditions: human, hela cells, % viability
Recorded viability at 28.5 h, 10 µM by entry
Kindly provide the numeric value in % only, without the unit symbol.

>  <molecule smiles>
COc1ccc(N(CC(=O)Nc2cccnc2)S(=O)(=O)c2ccc(C)cc2)cc1

>  <viability at 28.5 h, 10 µM, %>
99.6

$$$$
>  <molecule smiles>
COc1cccc(NC(=O)N[C@H]2[C@H](O)[C@@H](N3CCOCC3)[C@@H]3OC[C@H]2O3)c1

>  <viability at 28.5 h, 10 µM, %>
109

$$$$
>  <molecule smiles>
CCN(C(=O)c1cc2ccc(N(C)C)cc2[nH]1)C1CCN(C)CC1

>  <viability at 28.5 h, 10 µM, %>
79.8

$$$$
>  <molecule smiles>
CCCn1ccnc1-c1cn(Cc2cc(C(C)(C)C)n[nH]2)nn1

>  <viability at 28.5 h, 10 µM, %>
118

$$$$
>  <molecule smiles>
Cc1nn(C)c(O)c1Cc1c(F)cccc1Cl

>  <viability at 28.5 h, 10 µM, %>
92.5

$$$$

Query block: Would you kindly share the measured viability at 28.5 h, 10 µM for Cc1nn(CCC(=O)NCCN2CCC(C)CC2)c(C)c1Cl ?
Result block: 104

Query block: Would you kindly share the measured viability at 28.5 h, 10 µM for O=C(O)CN1C(=O)/C(=C/C2=Cc3ccccc3OC2)SC1=S ?
Result block: 103

Query block: # get_value(readout='viability at 28.5 h, 10 µM', item= CCOc1ccc2nc(SCCN3CCOCC3)sc2c1 )
Result block: 89.6

Query block: Can you share its viability at 28.5 h, 10 µM? I mean this compound: Clc1cccc(CNc2cncc(-c3cccs3)n2)c1
Result block: 105

----------
Assay: in vitro
Details: human, hela cells, % viability
value kind: viability at 28.5 h, 10 µM (%)
Write the answer as a number in %, unit excluded.

>  <compound>
COC(=O)[C@@H](C)NC(=O)[C@@H]1CN(C(=O)c2cccc(F)c2)CCN1C(=O)C1CCCCC1 [CBK289621]

>  <measure unit>
%

>  <viability at 28.5 h, 10 µM>
87.4

$$$$
>  <compound>
COCCN1C(=O)C2(CC(=O)N(CC3CCCCC3)C2=O)c2ccccc21 (centres unmarked) [CBK075355]

>  <measure unit>
%

>  <viability at 28.5 h, 10 µM>
97.8

$$$$

Query block: What value of viability at 28.5 h, 10 µM has been recorded for this entry: O=C(CO)N1CC2(CCN(CC3COc4ccccc4O3)CC2)c2ccccc21 (centres unmarked) [CBK143951]
Result block: 105

Query block: Any idea what viability at 28.5 h, 10 µM was measured for COc1ccc(CNc2cc(/C=C/c3ccccc3)nc3ccnn23)cc1 [CBK037075] ?
Result block: 103

Query block: For the compound shown here, COc1cccc(CN2CCC(Cc3ccccc3-c3ccc(C)cc3C)(C(=O)O)CC2)c1 [CBK286420] , give the reported viability at 28.5 h, 10 µM.
Result block: 95.5

----------
Here the recorded viability at 28.5 h, 10 µM is given for each entry.
Test: in vitro
Conditions: human, hela cells, % viability
Number in %, nothing else.

>  <compound>
O=C(NC(c1ccc(Cl)cc1)c1cnccn1)C1CCN(C(=O)N2CCOCC2)CC1 (stereo not drawn)

>  <viability at 28.5 h, 10 µM [%]>
96.7

$$$$

Query block: Entry under review: CN(CC(=O)N1CCN(Cc2ccc3c(c2)OCO3)CC1)S(=O)(=O)c1ccc2ccccc2c1 . Reported viability at 28.5 h, 10 µM?
Result block: 108

----------
Experiment: in vitro
Settings: human, hela cells, % viability
value kind: viability at 28.5 h, 10 µM (%)
Give the value in % but do not write % after it.

>  <molecule>
Cc1nn(C)cc1-c1cncn1C(C)(C)CN1CCC(C)CC1

>  <measure unit>
%

>  <viability at 28.5 h, 10 µM>
108

$$$$

Query block: // lookup viability at 28.5 h, 10 µM for O=C(O)CSc1nc2cc(Cl)c(Cl)cc2nc1N1CCCC1
Result block: 92.9

Query block: Endpoint output: viability at 28.5 h, 10 µM of O=c1c(O)c(-c2ccc(F)cc2)oc2ccccc12 . Value?
Result block: 72.4

Query block: # query: viability at 28.5 h, 10 µM of entry COc1cc(C(=O)N2CCC3(CC2)CC(=O)c2cc(C)c(C)cc2O3)ccc1C
Result block: 105

Query block: Fill in: viability at 28.5 h, 10 µM of Cc1ccc(Cl)c(OC(C)C(=O)N2CCCC(C(N)=O)C2)c1 (stereo not shown) is ___
Result block: 99.3

Query block: I would be grateful if you could share the reported viability at 28.5 h, 10 µM for CC(C)c1ccc(S(=O)(=O)N2CCN(c3ccc(C#N)cc3)CC2)cc1 .
Result block: 97.3

Query block: Item O=C(Nc1ccc(I)cc1C(=O)N1CCCCC1CCO)c1cccc2ccccc12 (stereo not shown) has what recorded viability at 28.5 h, 10 µM?
Result block: 113

Query block: Entry Cc1ccc(-n2nc(C(=O)NC3(C#N)CCSC3)cc2C)cc1 (stereo not shown) : reported viability at 28.5 h, 10 µM = ?
Result block: 86.9

Query block: Quick check: viability at 28.5 h, 10 µM of Cc1cccc(C)c1NC(=O)CN1CCC(Oc2cncc(OCc3cccnc3)n2)C1 (stereo not shown) ?
Result block: 87.6

Query block: Consider the molecule CC(C)CCCC(=O)n1ccn(-c2ccc(N(C)C)cc2)c1=O and give its measured viability at 28.5 h, 10 µM.
Result block: 92.7

Query block: Quick check: viability at 28.5 h, 10 µM of Nc1ncc(-c2cccc(O)c2)nc1-c1ccc(C(=O)NCCO)cc1 ?
Result block: 114

Query block: Returns the measured viability at 28.5 h, 10 µM for the input molecule. Input: c1ccc(-c2nc3ccc(Oc4ccc5nc(-c6ccccn6)c(-c6ccccn6)nc5c4)cc3nc2-c2ccccn2)nc1
Result block: 99.6

Query block: # query: viability at 28.5 h, 10 µM of entry C[N+](C)(C)c1ccc(C(=O)O)cc1 [CBK260929B]
Result block: 90

Query block: Form field: reported viability at 28.5 h, 10 µM of Cc1cc(C)cc(/N=C2\NC(=O)C(CC(=O)O)S2)c1 (stereo not shown)
Result block: 91.4

Query block: If you can, please state the reported viability at 28.5 h, 10 µM value of O=C(CSc1nnc(-c2cccnc2)o1)Nc1ccccc1 .
Result block: 82.6

Query block: Find the recorded viability at 28.5 h, 10 µM belonging to CSCCOc1nccnc1N1CCCC1 and report it.
Result block: 120

Query block: // returns reported viability at 28.5 h, 10 µM for input CCNC(=O)N1CCC(NS(=O)(=O)c2cnc3ccccc3c2)C1 (stereo not shown)
Result block: 85.3

Query block: I am curious: what viability at 28.5 h, 10 µM value has been reported for Cc1noc(C)c1NC(=O)N(Cc1ccc(-c2ccccc2)cc1)CC1CCNCC1 ?
Result block: 100

Query block: State the recorded viability at 28.5 h, 10 µM for this entry: O=[N+]([O-])c1ccccc1S(=O)(=O)N1CCN(Cc2cccnc2)CC1 [CBK264168G]
Result block: 68.3

Where these numbers come from: paper PMC12040169
